Below, each entry is listed alongside its reported IC50.
tested on: MDCK; assay: Cytotoxicity against MDCK cells by neutral red assay; format: cell-based; settings: Canis lupus familiaris
Measurement kind: IC50 (µg/mL)

Compound | Unit label | Comparison symbol | Result
COC(=O)C(Cc1ccc2c(c1)OCO2)C(Cc1cc(OC)c2c(c1)OCO2)C(=O)OC (centres undefined) [RHINACANTHIN F] | µg/mL | = | 17
NC12CC3CC(CC(C3)C1)C2 [AMANTADINE] | µg/mL | = | 56
NC(=O)c1ncn([C@@H]2O[C@H](CO)[C@@H](O)[C@H]2O)n1 [RIBAVIRIN] | µg/mL | > | 200
COC(=O)/C(=C/c1ccc2c(c1)OCO2)C(Cc1cc(OC)c2c(c1)OCO2)C(=O)OC (centres undefined) [RHINACANTHIN E] | µg/mL | = | 44
